meta.source: the supplement of paper PMC11061612

Listing: Bliss excess of selected compounds
System: RC-K8 (B-Cell Non-Hodgkin's Lymphoma)
Assay: Bliss excess, mean over the matrix (fraction); higher = more synergy
propertyMeasured: Bliss excess

• CC1(C)CCC(CN2CCN(c3ccc(C(=O)NS(=O)(=O)c4ccc(NCC5CCOCC5)c([N+](=O)[O-])c4)c(Oc4cnc5[nH]ccc5c4)c3)CC2)=C(c2ccc(Cl)cc2)C1 [Venetoclax] + CN(C)CCCOc1ccc(-c2ccc3ncc4c(c3c2)n(C2CCOCC2)c(=O)n4C)cn1 [AZD0156] (first compound max 1 µM, 7x7, partner max 1 µM) = 0.0282
• CC1(C)CCC(CN2CCN(c3ccc(C(=O)NS(=O)(=O)c4ccc(NCC5CCOCC5)c([N+](=O)[O-])c4)c(Oc4cnc5[nH]ccc5c4)c3)CC2)=C(c2ccc(Cl)cc2)C1 [Venetoclax] + C[C@@H]1COCCN1C2=NC(=NC(=C2)C3(CC3)[S@](=N)(=O)C)C4=C5C=CNC5=NC=C4 [AZD6738] (first compound max 1 µM, 7x7, partner max 10 µM) = -0.0294
• Cn1cnc2c(F)c(Nc3ccc(Br)cc3Cl)c(C(=O)NOCCO)cc21 [Selumetinib] + C[C@@H]1COCCN1C2=NC(=NC(=C2)C3(CC3)[S@](=N)(=O)C)C4=C5C=CNC5=NC=C4 [AZD6738] (first compound max 10 µM, 7x7, partner max 10 µM) = 0.0091
• CC(=O)c1c(C)c2cnc(Nc3ccc(N4CCNCC4)cn3)nc2n(C2CCCC2)c1=O [Palbociclib] + Cn1cnc2c(F)c(Nc3ccc(Br)cc3Cl)c(C(=O)NOCCO)cc21 [Selumetinib] (first compound max 10 µM, 7x7, partner max 10 µM) = -0.0203
• COc1cccc(OCCCN)c1-c1cc(Nc2cnc(C#N)cn2)n[nH]1 [Prexasertib] + CCc1c2c(nc3ccc(O)cc13)-c1cc3c(c(=O)n1C2)COC(=O)[C@]3(O)CC [SN-38] (first compound max 1 µM, 7x7, partner max 0.3 µM) = -0.0506
• CC(=O)c1c(C)c2cnc(Nc3ccc(N4CCNCC4)cn3)nc2n(C2CCCC2)c1=O [Palbociclib] + CN(CC[C@H](CSC1=CC=CC=C1)NC2=C(C=C(C=C2)S(=O)(=O)NC(=O)C3=CC=C(C=C3)N4CCC(CC4)[C@H](C5=CC=CC=C5C6=CC=C(C=C6)Cl)O)S(=O)(=O)C(F)(F)F)CCO [AZD4320] (first compound max 10 µM, 7x7, partner max 1 µM) = 0.0351
• Cc1c2c(nn1C)CSCc1cc(n(C)n1)CSc1cc(c3ccccc3c1)OCCCc1c(C(=O)O)n(C)c3c-2c(Cl)ccc13 [AZD5991] + Cc1cc2ncnn2cc1Nc1ncc2c(n1)n(C1CCOCC1)c(=O)n2C [AZD7648] (first compound max 1 µM, 7x7, partner max 10 µM) = 0.0148
• CN(CCO)CC[C@H](CSc1ccccc1)Nc1ccc(S(=O)(=O)NC(=O)c2ccc(N3CCC([C@@H](O)c4ccccc4-c4ccc(Cl)cc4)CC3)cc2)cc1S(=O)(=O)C(F)(F)F [AZD4320] + C1CN(CCC1(C(=O)N[C@@H](CCO)C2=CC=C(C=C2)Cl)N)C3=NC=NC4=C3C=CN4 [Capivasertib] (first compound max 1 µM, 7x7, partner max 3 µM) = -0.0241
• CC1(C)CCC(CN2CCN(c3ccc(C(=O)NS(=O)(=O)c4ccc(NCC5CCOCC5)c([N+](=O)[O-])c4)c(Oc4cnc5[nH]ccc5c4)c3)CC2)=C(c2ccc(Cl)cc2)C1 [Venetoclax] + Cn1cnc2c(F)c(Nc3ccc(Br)cc3Cl)c(C(=O)NOCCO)cc21 [Selumetinib] (first compound max 1 µM, 7x7, partner max 3 µM) = -0.0112
• CC(=O)c1c(C)c2cnc(Nc3ccc(N4CCNCC4)cn3)nc2n(C2CCCC2)c1=O [Palbociclib] + CC1(C)CCC(CN2CCN(c3ccc(C(=O)NS(=O)(=O)c4ccc(NCC5CCOCC5)c([N+](=O)[O-])c4)c(Oc4cnc5[nH]ccc5c4)c3)CC2)=C(c2ccc(Cl)cc2)C1 [Venetoclax] (first compound max 10 µM, 7x7, partner max 1 µM) = -0.0904
• CN(CCO)CC[C@H](CSc1ccccc1)Nc1ccc(S(=O)(=O)NC(=O)c2ccc(N3CCC([C@@H](O)c4ccccc4-c4ccc(Cl)cc4)CC3)cc2)cc1S(=O)(=O)C(F)(F)F [AZD4320] + Cc1cc2ncnn2cc1Nc1ncc2c(n1)n(C1CCOCC1)c(=O)n2C [AZD7648] (first compound max 1 µM, 7x7, partner max 10 µM) = 0.0198
• C[C@@H](c1ccc2nccn2c1)n1nnc2ncc(-c3cnn(C)c3)nc21 [Savolitinib] + CC1(C)CCC(CN2CCN(c3ccc(C(=O)NS(=O)(=O)c4ccc(NCC5CCOCC5)c([N+](=O)[O-])c4)c(Oc4cnc5[nH]ccc5c4)c3)CC2)=C(c2ccc(Cl)cc2)C1 [Venetoclax] (first compound max 1 µM, 7x7, partner max 1 µM) = -0.0489
• CS(=O)(=O)CCNCc1ccc(-c2ccc3ncnc(Nc4ccc(OCc5cccc(F)c5)c(Cl)c4)c3c2)o1 [Lapatinib] + C[C@@H](Oc1cc(-c2cnn(C3CCNCC3)c2)cnc1N)c1c(Cl)ccc(F)c1Cl [Crizotinib] (first compound max 10 µM, 7x7, partner max 10 µM) = -0.0433
• Cc1c2c(nn1C)CSCc1cc(n(C)n1)CSc1cc(c3ccccc3c1)OCCCc1c(C(=O)O)n(C)c3c-2c(Cl)ccc13 [AZD5991] + C=CCn1c(=O)c2cnc(Nc3ccc(N4CCN(C)CC4)cc3)nc2n1-c1cccc(C(C)(C)O)n1 [AZD1775] (first compound max 1 µM, partner max 1 µM) = -0.0294

====

Test system: KURAMOCHI (Ovarian Carcinoma)
Assay: combination Emax (second highest fraction inhibited in the dose matrix, 72 h); higher = more inhibition; extreme values may be limits of the assay
propertyMeasured: combination Emax

* CS(=O)(=O)CCNCc1ccc(-c2ccc3ncnc(Nc4ccc(OCc5cccc(F)c5)c(Cl)c4)c3c2)o1 [Lapatinib] + C[C@@H](Oc1cc(-c2cnn(C3CCNCC3)c2)cnc1N)c1c(Cl)ccc(F)c1Cl [Crizotinib] (first compound max 10 µM, 7x7, partner max 10 µM) | 0.721
* CCN(CCO)CCCOc1ccc2c(Nc3cc(CC(=O)Nc4cccc(F)c4)[nH]n3)ncnc2c1 [AZD2811] + C[C@@H]1COCCN1C2=NC(=NC(=C2)C3(CC3)[S@](=N)(=O)C)C4=C5C=CNC5=NC=C4 [AZD6738] (first compound max 1 µM, 7x7, partner max 10 µM) | 0.569
* N#Cc1cnc(Nc2cc(NC[C@H]3CNCCO3)c(C(F)(F)F)cn2)cn1 [SRA737] + CCc1c2c(nc3ccc(O)cc13)-c1cc3c(c(=O)n1C2)COC(=O)[C@]3(O)CC [SN-38] (first compound max 10 µM, 7x7, partner max 0.3 µM) | 0.9
* CC1(C)CCC(CN2CCN(c3ccc(C(=O)NS(=O)(=O)c4ccc(NCC5CCOCC5)c([N+](=O)[O-])c4)c(Oc4cnc5[nH]ccc5c4)c3)CC2)=C(c2ccc(Cl)cc2)C1 [Venetoclax] + C1CN(CCC1(C(=O)N[C@@H](CCO)C2=CC=C(C=C2)Cl)N)C3=NC=NC4=C3C=CN4 [Capivasertib] (first compound max 1 µM, 7x7, partner max 3 µM) | 0.536
* Cc1cc2ncnn2cc1Nc1ncc2c(n1)n(C1CCOCC1)c(=O)n2C [AZD7648] + C[C@@H]1COCCN1C2=NC(=NC(=C2)C3(CC3)[S@](=N)(=O)C)C4=C5C=CNC5=NC=C4 [AZD6738] (first compound max 10 µM, 7x7, partner max 10 µM) | 0.567
* C[C@@H](Oc1cc(-c2cnn(C3CCNCC3)c2)cnc1N)c1c(Cl)ccc(F)c1Cl [Crizotinib] + CC1=C(C(=CC=C1)Cl)NC(=O)C2=CN=C(S2)NC3=CC(=NC(=N3)C)N4CCN(CC4)CCO [Dasatinib] (first compound max 10 µM, 7x7, partner max 2 µM) | 0.909
* C=CCn1c(=O)c2cnc(Nc3ccc(N4CCN(C)CC4)cc3)nc2n1-c1cccc(C(C)(C)O)n1 [AZD1775] + C1CN(CCC1(C(=O)N[C@@H](CCO)C2=CC=C(C=C2)Cl)N)C3=NC=NC4=C3C=CN4 [Capivasertib] (first compound max 3 µM, partner max 3 µM) | 0.625

====

Test system: TE-9 (Esophageal Squamous Cell Carcinoma)
Assay: Bliss excess, mean over the matrix (fraction); higher = more synergy
propertyMeasured: Bliss excess

* Cc1c2c(nn1C)CSCc1cc(n(C)n1)CSc1cc(c3ccccc3c1)OCCCc1c(C(=O)O)n(C)c3c-2c(Cl)ccc13 [AZD5991] + C=CCn1c(=O)c2cnc(Nc3ccc(N4CCN(C)CC4)cc3)nc2n1-c1cccc(C(C)(C)O)n1 [AZD1775] (first compound max 1 µM, partner max 1 µM) | 0.0286
* CCN(CCO)CCCOc1ccc2c(Nc3cc(CC(=O)Nc4cccc(F)c4)[nH]n3)ncnc2c1 [AZD2811] + C[C@@H]1COCCN1C2=NC(=NC(=C2)C3(CC3)[S@](=N)(=O)C)C4=C5C=CNC5=NC=C4 [AZD6738] (first compound max 1 µM, 7x7, partner max 10 µM) | -0.009
* O=C(c1cc(Cc2n[nH]c(=O)c3ccccc23)ccc1F)N1CCN(C(=O)C2CC2)CC1 [Olaparib] + CN(CC[C@H](CSC1=CC=CC=C1)NC2=C(C=C(C=C2)S(=O)(=O)NC(=O)C3=CC=C(C=C3)N4CCC(CC4)[C@H](C5=CC=CC=C5C6=CC=C(C=C6)Cl)O)S(=O)(=O)C(F)(F)F)CCO [AZD4320] (first compound max 10 µM, 7x7, partner max 1 µM) | -0.003
